Target: HLA-A*02:02
Experiment: IEDB peptide-MHC binding, purified MHC/competitive/radioactivity; filed as Kd, often an IC50 or EC50 that approximates it; bounds were set here for any values at or beyond the usual limits of such assays
Conditions: source organism: Vaccinia virus WR
pKd: −log10 of the molar value.
Label True for high-side pKd (at or above 6) and False for low-side pKd (below it).

monomerSequence	assignedCategory
PIPMSRLFM	False
IIGEPIIVA	False
GIFVDTMSI	False
IIDLLLPST	False
YLSKEDRII	True
MVDVSMMSM	True
SMMVILPDKI	True
ILHNIYRLFT	True
MVIENGILKK	False
YQSFLFWFL	True

Dear colleague, could you confirm whether DILQMREIIT has pKd at or above 6?
False

Check this sequence for pKd at or above 6: IVAAVIIMA
False

Answer whether pKd of IPFIAYFVLM is greater than or equal to 6.
False

Is pKd for NMINKLYGYA at or above 6?
True

Identify whether the reported pKd of the following sequence is 6 or greater: FLFWFLKSGA
True

----------
Target: HLA-A*02:17
Assay: IEDB peptide-MHC binding, purified MHC/competitive/radioactivity; filed as Kd, often an IC50 or EC50 that approximates it; bounds were set here for any values at or beyond the usual limits of such assays
Details: source organism: Dengue virus 1 Singapore/S275/1990
In plain terms, low Kd, meaning strictly below 600 nM, gives y, and everything else gives n.

Use these answered entries as a reference point.
monomerSequence	assignedCategory
SVLLWMASV	y
TLMLLALIAV	n
VLSIVSLFPL	y
FSLGLLCISI	n

A record lists QLWATLLSL . Is its Kd below 600 nM?
y

----------
This section presents sequences with their documented Kd values.
Biological target: HLA-B*15:01
Experiment: IEDB peptide-MHC binding, purified MHC/competitive/radioactivity; filed as Kd, often an IC50 or EC50 that approximates it; bounds were set here for any values at or beyond the usual limits of such assays
Details: source organism: Dengue virus 2 Jamaica/1409/1983
Field: numeric (nM). Do not append units.

monomerSequence	assayTarget	unitText	Kd
KLFMALVAF	HLA-B*15:01	nM	198

Now consider the entry below.
Kd in this record for LMMRTTWAL : 0.12

----------
Attribute: pKd
Target: HLA-A*02:01
Assay: IEDB peptide-MHC binding, purified MHC/competitive/radioactivity; filed as Kd, often an IC50 or EC50 that approximates it; bounds were set here for any values at or beyond the usual limits of such assays
Settings: source organism: Vaccinia virus WR
Would you please state pKd, meaning minus log10 of the concentration in mol/L, as a bare number?

Past entries and their recorded results:
monomerSequence	pKd
IPFIAYFVLM	5.88
MMCYFLTATP	7.74

Measured pKd (HLA-A*02:01), entry SLFIESSICL : 8.70

----------
Biological target: HLA-B*39:01
Test: IEDB peptide-MHC binding, purified MHC/competitive/fluorescence; filed as Kd, often an IC50 or EC50 that approximates it; bounds were set here for any values at or beyond the usual limits of such assays
Settings: source organism: Orthohantavirus sinnombreense
quantityName: Kd

# sequence LFPELECFF ; its Kd = ≥ 20 µM

----------
Biological target: HLA-A*02:01
Experiment: IEDB peptide-MHC binding, purified MHC/direct/fluorescence; filed as Kd, often an IC50 or EC50 that approximates it; bounds were set here for any values at or beyond the usual limits of such assays
Details: source organism: Yellow fever virus
quantityName: Kd

Sure, the documented Kd for SSARYDVAL is ≥ 20 µM

----------
Molecular target: HLA-A*02:01
Test: IEDB peptide-MHC binding, purified MHC/direct/fluorescence; filed as Kd, often an IC50 or EC50 that approximates it; bounds were set here for any values at or beyond the usual limits of such assays
Conditions: source organism: Yellow fever virus 17D
pKd: −log10 of the molar value.
quantityName: pKd

// VRGGMVAPL : pKd value = ≤ 4.70

----------
Molecular target: HLA-A*03:01
Experiment: IEDB peptide-MHC binding, purified MHC/direct/fluorescence; filed as Kd, often an IC50 or EC50 that approximates it; bounds were set here for any values at or beyond the usual limits of such assays
Details: source organism: Influenza A virus (A/turkey/MN/735/79(H6N2))
quantityName: pKd
Keep in mind that pKd stands for -log10 of concentration in molar terms.

Documented pKd of MVLASTTAK : 7.80

----------
Target: HLA-B*54:01
Assay: IEDB peptide-MHC binding, purified MHC/competitive/radioactivity; filed as Kd, often an IC50 or EC50 that approximates it; bounds were set here for any values at or beyond the usual limits of such assays
Details: source organism: Vaccinia virus WR
quantityName: pKd
To interpret pKd, take it as minus log10 of a concentration measured in moles per litre.

Past entries and their recorded results:
monomerSequence	assayTarget	quantityName	readoutNumber
LPHLCLDYKV	HLA-B*54:01	pKd	8.30
IPFIAYFVLM	HLA-B*54:01	pKd	5.70
VILFIMFMLI	HLA-B*54:01	pKd	6.09
APIKEFKAKI	HLA-B*54:01	pKd	4.95

Then this sequence:
So, TPVSMTYLY ? Its pKd was 6.01

----------
Biological target: HLA-B*08:02
Test: IEDB peptide-MHC binding, purified MHC/competitive/fluorescence; filed as Kd, often an IC50 or EC50 that approximates it; bounds were set here for any values at or beyond the usual limits of such assays
Details: source organism: Human immunodeficiency virus 1
quantityName: Kd

Reported Kd ( VLYCVHQRV ) = ≥ 20 µM

----------
Biological target: HLA-A*02:01
Test: IEDB peptide-MHC binding, purified MHC/competitive/fluorescence; bounds were set here for any values at or beyond the usual limits of such assays
Conditions: source organism: Hepacivirus hominis
quantityName: pIC50
Notebook: values listed as pIC50 are -log10 of the concentration (mol/L).

Per the records, this sequence ( LLCPAGHAV ) has pIC50 equal to 4.45

----------
Target: HLA-A*02:01
Assay: IEDB peptide-MHC binding, purified MHC/competitive/fluorescence; filed as Kd, often an IC50 or EC50 that approximates it; bounds were set here for any values at or beyond the usual limits of such assays
Conditions: source organism: Streptococcus pneumoniae TIGR4
quantityName: Kd (nM)
Entry rule: numbers only, all in nM.

Recorded Kd (sequence CLSDEINHV ): 10.9

----------
Target: HLA-A*03:01
Assay: IEDB peptide-MHC binding, purified MHC/competitive/fluorescence; bounds were set here for any values at or beyond the usual limits of such assays
Conditions: source organism: Vaccinia virus
quantityName: pIC50
Scale note: pIC50 = -log10(concentration in M).

Data point: INNQLLLQK ; pIC50 = 4.19

----------
Known pKd of a selection of sequences
Target: HLA-A*02:01
Experiment: IEDB peptide-MHC binding, purified MHC/competitive/radioactivity; filed as Kd, often an IC50 or EC50 that approximates it; bounds were set here for any values at or beyond the usual limits of such assays
Conditions: source organism: Dengue virus 4 Philippines/H241/1956
Give only the number. pKd is defined as minus log10 of concentration in molar units.

monomerSequence	readoutNumber
TMFGGVSWMV	8.35

Looking up YTMCSGKFSI , I found its pKd recorded as 7.10

----------
Biological target: HLA-B*07:02
Assay: IEDB peptide-MHC binding, purified MHC/competitive/radioactivity; filed as Kd, often an IC50 or EC50 that approximates it; bounds were set here for any values at or beyond the usual limits of such assays
Settings: source organism: Dengue virus 3 Martinique/1243/1999
Attribute: Kd
Units required after the number.

monomerSequence	Kd
TPTGTVMDII	219 nM

Proceeding to the next sequence to report its Kd.
Given item LPEYGTLGL , the value recorded as its Kd is 40.1 nM

----------
Molecular target: HLA-A*01:01
Experiment: IEDB peptide-MHC binding, purified MHC/direct/fluorescence; filed as Kd, often an IC50 or EC50 that approximates it; bounds were set here for any values at or beyond the usual limits of such assays
Conditions: source organism: Sudan ebolavirus - Maleo (1979)
quantityName: Kd

Kd for MHYKLDEVL is ≥ 20 µM

----------
Target: HLA-B*40:01
Assay: IEDB peptide-MHC binding, purified MHC/direct/fluorescence; filed as Kd, often an IC50 or EC50 that approximates it; bounds were set here for any values at or beyond the usual limits of such assays
Details: source organism: Escherichia coli O157:H7
quantityName: pKd
Value format note: pKd is -log10 of concentration (mol/L); just state the number.

monomerSequence	pKd
EEDAAVDDL	5.84

// below: pKd requested for another sequence
Sure, the documented pKd for YECTSRHFT is 5.64

----------
Target: HLA-A*69:01
Experiment: IEDB peptide-MHC binding, purified MHC/competitive/fluorescence; filed as Kd, often an IC50 or EC50 that approximates it; bounds were set here for any values at or beyond the usual limits of such assays
Conditions: source organism: Salmonella enterica subsp. enterica serovar Typhimurium str. LT2
pKd: −log10 of the molar value.
quantityName: pKd

ILNSDDEQA has a reported pKd of ≤ 4.70
